# experimental target: Tyrosine-protein kinase JAK1 (Homo sapiens) (UniProt P23458)
# Sequence (P23458 whole entry): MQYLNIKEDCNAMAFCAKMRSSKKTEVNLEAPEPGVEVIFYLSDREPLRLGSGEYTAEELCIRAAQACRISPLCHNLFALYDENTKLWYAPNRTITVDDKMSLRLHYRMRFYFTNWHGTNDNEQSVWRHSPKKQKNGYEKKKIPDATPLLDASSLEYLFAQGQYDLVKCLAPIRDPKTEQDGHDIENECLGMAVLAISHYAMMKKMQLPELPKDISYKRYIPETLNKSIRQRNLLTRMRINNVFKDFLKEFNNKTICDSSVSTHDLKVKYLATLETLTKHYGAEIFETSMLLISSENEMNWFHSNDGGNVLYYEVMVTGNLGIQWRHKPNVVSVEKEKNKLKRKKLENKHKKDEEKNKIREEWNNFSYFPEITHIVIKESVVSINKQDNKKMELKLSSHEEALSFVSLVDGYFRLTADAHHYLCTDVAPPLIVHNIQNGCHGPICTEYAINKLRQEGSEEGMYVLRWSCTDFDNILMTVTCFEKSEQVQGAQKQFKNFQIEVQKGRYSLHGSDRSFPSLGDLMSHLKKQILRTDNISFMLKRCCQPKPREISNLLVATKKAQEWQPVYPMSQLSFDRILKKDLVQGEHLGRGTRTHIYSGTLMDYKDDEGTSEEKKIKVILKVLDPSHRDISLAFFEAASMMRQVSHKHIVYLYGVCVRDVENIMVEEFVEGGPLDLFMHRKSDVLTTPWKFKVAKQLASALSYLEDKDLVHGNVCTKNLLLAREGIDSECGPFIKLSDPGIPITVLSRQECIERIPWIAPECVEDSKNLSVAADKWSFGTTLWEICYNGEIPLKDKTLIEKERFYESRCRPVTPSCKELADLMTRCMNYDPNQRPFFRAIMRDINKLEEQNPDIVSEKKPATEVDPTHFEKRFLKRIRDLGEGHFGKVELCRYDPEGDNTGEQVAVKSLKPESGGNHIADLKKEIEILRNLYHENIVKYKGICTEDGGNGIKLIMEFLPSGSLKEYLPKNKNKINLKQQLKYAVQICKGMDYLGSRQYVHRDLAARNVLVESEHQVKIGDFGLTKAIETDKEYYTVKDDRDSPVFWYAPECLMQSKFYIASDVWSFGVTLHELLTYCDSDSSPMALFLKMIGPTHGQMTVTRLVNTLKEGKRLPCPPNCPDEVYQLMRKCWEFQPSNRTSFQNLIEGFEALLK
# experiment summary: Inhibition of JAK1 (unknown origin) at 10 uM relative to control
inhibition below 80% gives no; inhibition at or above it gives yes.

Prompt line: Is inhibition at least 80%? Consider "CC(C)Nc1c(C(N)=O)nnc2ccc(-c3ccncc3)cc12"
Response line: no

Prompt line: Is inhibition at least 80%? Consider "CC(C)Nc1c(C(N)=O)cnc2cc(-c3ccc(S(C)(=O)=O)cc3)ccc12"
Response line: no

Prompt line: Is inhibition at least 80%? Consider "CS(=O)(=O)c1ccc(-c2ccc3c(NC4CCC4)c(C(N)=O)nnc3c2)cc1"
Response line: no

Prompt line: Is inhibition at least 80%? Consider "C[C@@H](Nc1c(C(N)=O)nnc2cc(-c3ccc(S(C)(=O)=O)cc3)ccc12)C1CC1"
Response line: no

Prompt line: Is inhibition at least 80%? Consider "CC(C)Nc1c(C(N)=O)nnc2cc(-c3ccncc3)ccc12"
Response line: yes

Prompt line: Is inhibition at least 80%? Consider "CC(C)Nc1c(C(N)=O)nnc2cc(N3CCOCC3)ccc12"
Response line: no

Prompt line: Is inhibition at least 80%? Consider "CC(C)Nc1c(C(N)=O)nnc2ccc(-c3cn[nH]c3)cc12"
Response line: yes

src = ChEMBL document CHEMBL2331489
